propertyMeasured: melting point

Find the recorded melting point belonging to CC(=O)CN1C(=O)S/C(=C\c2ccccc2)C1=O [Compound 13a] and report it.
139 to 140 °C

Find the recorded melting point belonging to N#CCN1C(=O)S/C(=C\c2cccc([N+](=O)[O-])c2)C1=O [Compound 14c] and report it.
173 to 175 °C

Find the recorded melting point belonging to COc1cc(/C=C2\SC(=O)N(CC(=O)Nc3ccc(C)cc3)C2=O)cc(OC)c1OC [Compound 24e] and report it.
196 to 198 °C

###

propertyMeasured: melting point

Find the recorded melting point belonging to COc1cc(/C=C2\SC(=O)N(CC(C)=O)C2=O)cc(OC)c1OC [Compound 13e] and report it.
139 to 140 °C

Find the recorded melting point belonging to O=C(CN1C(=O)S/C(=C\c2ccccc2[N+](=O)[O-])C1=O)c1ccccc1 [Compound 16b] and report it.
156 to 158 °C

Find the recorded melting point belonging to NC(=O)CN1C(=O)S/C(=C\c2ccccc2[N+](=O)[O-])C1=O [Compound 15b] and report it.
233 to 235 °C

Find the recorded melting point belonging to COc1ccc(NC(=O)CN2C(=O)S/C(=C\c3ccc([N+](=O)[O-])cc3)C2=O)cc1 [Compound 25d] and report it.
254 to 256 °C

Find the recorded melting point belonging to O=C(CN1C(=O)S/C(=C\c2ccc([N+](=O)[O-])cc2)C1=O)Nc1ccc(Cl)cc1 [Compound 27d] and report it.
252 to 254 °C

Find the recorded melting point belonging to COc1cc(/C=C2\SC(=O)N(CC(=O)Nc3ccccc3Cl)C2=O)cc(OC)c1OC [Compound 28e] and report it.
222 to 223 °C

Find the recorded melting point belonging to O=C(CN1C(=O)S/C(=C\c2ccccc2[N+](=O)[O-])C1=O)Nc1ccc([N+](=O)[O-])cc1 [Compound 26b] and report it.
213 to 215 °C

Find the recorded melting point belonging to CCOC(=O)CN1C(=O)S/C(=C\c2cc(OC)c(OC)c(OC)c2)C1=O [Compound 12e] and report it.
145 to 147 °C
